target-or-test-system: T1, HLA-A*02:01 (human)
T1 construct: Peptide-receptive HLA-A*02:01 monomer obtained by UV cleavage of a UV-sensitive ligand; captured on streptavidin plates; also called peptide-receptive MHC molecules; MHC class I
procedure-details: UV-ligand exchange, anti-b2m ELISA; grade of peptide exchange yield (>10% = +; >20% = ++; >50 = +++; >75% = ++++)
Hi there, I'd appreciate the recorded peptide exchange yield for every entry that follows.

binder: YIDPYKLLPL
obs-value: 50 to 75%
--
binder: VLYGDVEEL
obs-value: 50 to 75%
--
binder: AVLGGKLYV
obs-value: > 75%
--
binder: ALAKLLPLL
obs-value: > 75%
--
binder: AQLNLIWQL
obs-value: > 75%
--
binder: TLLSEIAEL
obs-value: > 75%
--
binder: SLCPPGGIQEV
obs-value: > 75%
--
binder: ALVGDVILTV
obs-value: > 75%
--
binder: SLDGNPLAV
obs-value: > 75%
--
binder: GLWSSIFSL
obs-value: > 75%

Please supply peptide exchange yield for each of the following items, keeping them in order.
1. RLSGEGVGPV
2. KILEMDDPRA
3. ALKDSVQRA
4. SLVSYLDKV
5. FLIPSIIFA

Solution:
["50 to 75%", "20 to 50%", "50 to 75%", "> 75%", "> 75%"]

Problem: State, in one line, measured peptide exchange yield of QLLEGELETL
Solution: 50 to 75%
